Target: T1, PUF4 RNA-binding domain (Saccharomyces cerevisiae, UniProt P25339 537-888)
T1 sequence: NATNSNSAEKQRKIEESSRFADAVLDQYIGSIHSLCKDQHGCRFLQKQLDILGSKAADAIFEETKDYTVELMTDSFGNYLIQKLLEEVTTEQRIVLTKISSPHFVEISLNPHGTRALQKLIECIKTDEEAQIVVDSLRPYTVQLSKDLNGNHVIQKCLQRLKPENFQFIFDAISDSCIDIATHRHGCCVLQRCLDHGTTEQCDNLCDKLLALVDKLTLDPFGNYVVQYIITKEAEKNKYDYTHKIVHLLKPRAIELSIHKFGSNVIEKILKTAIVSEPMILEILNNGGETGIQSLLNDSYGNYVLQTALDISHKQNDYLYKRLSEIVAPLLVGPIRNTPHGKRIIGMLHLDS
Assay: Mg; RNA-MaP; 20 mM Na-HEPES pH 7.4, 30 mM KOAc, 0.75 mM MgCl2, 0.1% Tween-20, 5% glycerol, 0.1 mg/mL BSA, 2 mM DTT; 25 C; 0.0125-409.6 nM protein
Conditions: tags: N-His6-TEV cleaved; C-SNAP kept, Cy3B-labelled; label: tethered on chip by stalled RNA polymerase
Please use the following Kd ranges when assigning a class: category 1 (below 10 nM), category 2 (10 nM to below 70 nM), category 3 (70 nM or more)

* Ic_S4_P5E.1_K5.1_C5.1_H5.1_A5.1_[A7G]_F5.1_[T8C]_[T9C]_[A10T]_T5.1 (ssRNA) RNA: UUUGACAACUGAUCGUUCUUUCUUGUAUUGCCUUUCUUUCUCGAUCAGUUGUCUUU | category 3
* Ie_S2_P3E.2_K3.1_C3.2_H3.1_[+2CTT]_A3.1_F3.1_T3.2 (ssRNA) RNA: UUUGAUUAAUAUGAUAUCGUUCUUUCUCUUGCUUUAUAUAUAUUCUUUCUCGAUAUCAUAUUAAUCUUU | category 2
* Ic_S4_P3E.1_K3.1_C3.1_H3.1_A3.1_F3.1_[T7G]_[A8T]_T3.1 (ssRNA) RNA: UUUGACAACUGAUCGUUCUUUCUUGUAUAGUUUCUUUCUCGAUCAGUUGUCUUU | category 2
* ACAAACAGUAUCAUUAACAAAC (ssRNA) [Ib_S3_P5E.1_K5.1_C5.1_H5.1_[T1A]_A5.1_[T6C]_F5.1_T5.1] | category 3
* Id_ii_S2_P3E.3_K3.2_C3.2_[C-2G]_H3.2_A3.1_F3.1_T3.2_[T9A]_[A10T] (ssRNA) RNA: UUUGAUUAAUAUGAUAUCGUUCUUUCUGUUAUAUAUAAUUUCUUUCUCGAUAUCAUAUUAAUCUUU | category 2
* Ie_S2_P5E.1_K5.1_C5.1_H5.1_[+2CTC]_A5.1_F5.1_T5.1 (ssRNA) RNA: UUUGAUUAAUAUGAUAUCGUUCUUUCUUGCUCUAUUAUUAUUCUUUCUCGAUAUCAUAUUAAUCUUU | category 3
* UCUCUUUGUUCCUAUAUUAUCUCUU (ssRNA) [Ie_S1_P4E.1_K4.1_C4.1_H4.1_[+2TTCC]_A4.1_F4.1_T4.1] | category 3
* UCUCUUCAUAUAUAUUACGUCUCUU (ssRNA) [Id_ii_S1_P4E.3_K4.2_C4.2_[T-1A]_H4.2_A4.1_F4.1_T4.2_[G10C]_[T11G]] | category 2
* Id_ii_S2_P4E.4_K4.3_C4.2_[C-2G]_H4.3_A4.1_F4.1_T4.2_[G10C]_[T11C] (ssRNA) RNA: UUUGAUUAAUAUGAUAUCGUUCUUUCUGUACACUAUUACCUUCUUUCUCGAUAUCAUAUUAAUCUUU | category 1
* Ie_S2_P5E.1_K5.1_C5.1_H5.1_A5.1_F5.1_[+9CTT]_T5.1 (ssRNA) RNA: UUUGAUUAAUAUGAUAUCGUUCUUUCUUGUAUUAUUCUUAUUCUUUCUCGAUAUCAUAUUAAUCUUU | category 2

Task: Just checking, what class would you give UCUCUUUCUGUAUUAUUAUCUCUCUU (ssRNA) [Id_ii_S1_P5E.2_K5.1_C5.2_[C-2T]_[T-1C]_H5.1_A5.1_F5.1_T5.2_[A12C]] here?
Output: category 1

Task: Sort UCUCUUUGUACAUGUGUCUCUU (ssRNA) [Ic_S1_P5E.1_K5.1_C5.1_H5.1_A5.1_[T5C]_[T6A]_[A7T]_F5.1_[T8G]_[A10G]_T5.1] into one of the categories.
Output: category 2

Task: Sort UCUCUUUGUAUACUUUUAUCUCUU (ssRNA) [Ie_S1_P4E.1_K4.1_C4.1_H4.1_A4.1_[+6CTT]_F4.1_T4.1] into one of the categories.
Output: category 1

Task: Quick check: band for Id_ii_S2_P3E.2_K3.1_C3.2_[T-1A]_H3.1_A3.1_F3.1_T3.2_[T9G]_[A10T] (ssRNA) RNA: UUUGAUUAAUAUGAUAUCGUUCUUUCUCAUGUAUAUAGUUUCUUUCUCGAUAUCAUAUUAAUCUUU
Output: category 1
